Measured EC50, listed per entry.
- System: Primary human epidermal keratinocytes, HeKa
- measurement.notes: HeKa cytokine release (IL-8)
- Type: cell-based
- test.settings: normalized to positive control 1.5×10^−7 M PEP0005, 6 h incubation, read-out: HeKa cytokine release (IL-8) Rel EC50
property.label: EC50

entry.smiles: CC1=C[C@]23C(=O)[C@@H](C=C(CO)C[C@@H]2[C@H]1OC(=O)C1(C)CCCCC1)[C@H]1[C@@H](C[C@H]3C)C1(C)C
property.label: EC50
reported: 130 nM

entry.smiles: CC1=C[C@]23C(=O)[C@@H](C=C(CO)[C@@H](O)[C@@H]2[C@H]1OC(=O)C1(C)CCCCC1)[C@H]1[C@@H](C[C@H]3C)C1(C)C
property.label: EC50
reported: 35 nM

entry.smiles: CC1=C[C@@]23CC[C@@H]4[C@H]([C@H](C=C(CO)[C@@H](O)[C@]2(O)[C@H]1OC(=O)C1(C)CCCCC1)C3=O)C4(C)C
property.label: EC50
reported: 4 nM

entry.smiles: CC1=C[C@]23C(=O)[C@@H](C=C(CO)C[C@]2(O)[C@H]1OC(=O)C1(C)CCCCC1)[C@H]1[C@@H](C[C@H]3C)C1(C)C
property.label: EC50
reported: 26 nM

====

- target.or.system: Human Protein Kinase C betaII (PKCbII) (Homo sapiens (Human))
- Sequence (P05771 other isoform, or with tags, fused parts or gaps): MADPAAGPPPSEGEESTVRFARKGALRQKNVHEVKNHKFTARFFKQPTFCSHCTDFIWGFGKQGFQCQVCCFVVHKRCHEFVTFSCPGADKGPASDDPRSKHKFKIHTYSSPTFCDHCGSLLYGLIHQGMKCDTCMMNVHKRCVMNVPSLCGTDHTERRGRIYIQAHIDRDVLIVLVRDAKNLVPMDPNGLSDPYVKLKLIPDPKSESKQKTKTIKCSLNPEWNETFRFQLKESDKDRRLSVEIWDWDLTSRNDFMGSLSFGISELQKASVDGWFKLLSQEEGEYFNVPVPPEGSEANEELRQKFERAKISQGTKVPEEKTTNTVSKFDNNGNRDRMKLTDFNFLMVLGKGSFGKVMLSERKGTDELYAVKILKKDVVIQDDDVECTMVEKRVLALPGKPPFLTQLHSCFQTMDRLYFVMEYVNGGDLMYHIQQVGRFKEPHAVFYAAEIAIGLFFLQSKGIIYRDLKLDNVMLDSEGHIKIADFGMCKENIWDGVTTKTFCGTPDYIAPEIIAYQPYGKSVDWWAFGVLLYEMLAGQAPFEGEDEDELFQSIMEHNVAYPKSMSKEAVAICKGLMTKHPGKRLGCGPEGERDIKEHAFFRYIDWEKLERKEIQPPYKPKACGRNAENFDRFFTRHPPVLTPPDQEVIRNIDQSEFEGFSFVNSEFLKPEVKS
- measurement.notes: PKCbetaII activity assay
- test.settings: γ-33P-ATP, normalized to the effect of DMSO, read-out: PKC-β binding Rel EC50
pEC50: −log10 of the molar value.
Measured pEC50, listed per entry.

compound: CC1=C[C@]23C(=O)[C@@H](C=C(CO)[C@@H](O)[C@@H]2[C@H]1OC(=O)C1(C)CCCCC1)[C@H]1[C@@H](C[C@H]3C)C1(C)C [Compound 7]
pEC50: 9.70
//
compound: CC1=C[C@]23C(=O)[C@@H](C=C(CO)C[C@]2(O)[C@H]1OC(=O)C1(C)CCCCC1)[C@H]1[C@@H](C[C@H]3C)C1(C)C [Compound 6]
pEC50: 9.10
//
compound: CC1=C[C@]23C(=O)[C@@H](C=C(CO)C[C@@H]2[C@H]1OC(=O)C1(C)CCCCC1)[C@H]1[C@@H](C[C@H]3C)C1(C)C [Compound 5]
pEC50: 8.22
//
compound: CC1=C[C@@]23CC[C@@H]4[C@H]([C@H](C=C(CO)[C@@H](O)[C@]2(O)[C@H]1OC(=O)C1(C)CCCCC1)C3=O)C4(C)C [Compound 8]
pEC50: 10.00

====

- target.or.system: Human Protein Kinase C delta (PKCδ) (Homo sapiens (Human))
- Sequence (Q05655 whole entry): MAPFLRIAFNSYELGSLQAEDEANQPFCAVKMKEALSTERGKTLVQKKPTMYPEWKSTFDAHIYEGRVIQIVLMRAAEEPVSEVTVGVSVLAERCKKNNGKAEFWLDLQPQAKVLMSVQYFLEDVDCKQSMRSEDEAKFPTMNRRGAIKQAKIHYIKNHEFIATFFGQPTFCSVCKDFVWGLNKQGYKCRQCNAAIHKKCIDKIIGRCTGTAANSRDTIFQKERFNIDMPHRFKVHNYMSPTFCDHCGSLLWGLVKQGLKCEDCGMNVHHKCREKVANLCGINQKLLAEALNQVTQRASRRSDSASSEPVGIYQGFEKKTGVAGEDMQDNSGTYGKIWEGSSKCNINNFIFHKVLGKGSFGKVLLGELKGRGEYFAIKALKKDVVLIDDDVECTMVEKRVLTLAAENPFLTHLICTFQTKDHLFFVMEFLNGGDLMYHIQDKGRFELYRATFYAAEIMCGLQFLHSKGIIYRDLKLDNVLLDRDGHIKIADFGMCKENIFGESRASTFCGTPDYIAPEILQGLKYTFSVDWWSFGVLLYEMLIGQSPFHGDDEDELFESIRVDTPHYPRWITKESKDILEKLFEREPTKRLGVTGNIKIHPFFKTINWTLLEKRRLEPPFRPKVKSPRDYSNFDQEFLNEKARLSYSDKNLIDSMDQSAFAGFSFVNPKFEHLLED
- measurement.notes: PKC δ binding assay
- test.settings: kinase activation, γ-33P-ATP, normalized to the effect of DMSO; read-out: PKC-δ binding Rel EC50
Measured EC50, listed per entry.

entry.smiles: CC1=C[C@]23C(=O)[C@@H](C=C(CO)C[C@@H]2[C@H]1OC(=O)C1(C)CCCCC1)[C@H]1[C@@H](C[C@H]3C)C1(C)C
EC50: 1110 nM
//
entry.smiles: CC1=C[C@@]23CC[C@@H]4[C@H]([C@H](C=C(CO)[C@@H](O)[C@]2(O)[C@H]1OC(=O)C1(C)CCCCC1)C3=O)C4(C)C
EC50: 7 nM
//
entry.smiles: CC1=C[C@]23C(=O)[C@@H](C=C(CO)[C@@H](O)[C@@H]2[C@H]1OC(=O)C1(C)CCCCC1)[C@H]1[C@@H](C[C@H]3C)C1(C)C
EC50: 154 nM
//
entry.smiles: CC1=C[C@]23C(=O)[C@@H](C=C(CO)C[C@]2(O)[C@H]1OC(=O)C1(C)CCCCC1)[C@H]1[C@@H](C[C@H]3C)C1(C)C
EC50: 80 nM
